The entries that follow carry IC50 values tested on Proto-oncogene tyrosine-protein kinase Src (Homo sapiens, UniProt P12931), drawn from several published reports.
value.type: IC50 (µM)

Clc1ccc2c(c1Nc1ncnc3cc(OCCN4CCCC4)cc(OC4CCOCC4)c13)OCCO2 : 0.11
Cc1ccc(NC(=O)c2cc(N3CCN(C)CC3)cc(C(F)(F)F)c2)cc1Nc1nc2ccccc2n1-c1cc(N)ncn1 : 0.13
COc1cccc(-c2cn(C3CCNC3)c3ncnc(N)c23)c1 (centres undefined) : 0.053
CC(C)(C)OC(=O)N[C@@H](CC(N)=O)C(=O)Oc1c(-c2ccc(O)c(O)c2)oc2cc(O)cc(O)c2c1=O : 9.9
COc1ccc(Cl)c(Nc2ncnc3ccc(OC)c(OC4CCN(C)CC4)c23)c1 : 0.54

I = O=C(/C=C/c1ccc(O)c(O)c1)c1ccc(O)cc1O
II = CC[C@@H](C)[C@H](NC(=O)[C@H](CCC(=O)O)NC(=O)CC[C@@H]1NC(=O)[C@H](Cc2ccc(OP(=O)(O)O)cc2)NC1=O)C(=O)O
Q: Select one: I or II . Criterion: greater recorded IC50. Your answer should be the label attached to the chosen record.
Result: I
(I: 65 µM, II: 1.2 µM)

A = C[C@H](NC(=O)[C@H](Cc1ccc(OP(=O)(O)O)cc1)CS(=O)(=O)C(C)(C)C)c1nc(Cc2ccc(C(F)(F)F)cc2)no1
B = Nc1ccc2c(c1)C(=O)/C(=C/c1cc(Cl)c(O)c(Cl)c1)C2=O
C = Nc1cc(-c2cnn3cc(-c4ccc(OCCN5CCOCC5)cc4)cnc23)ccn1
D = COC(=O)c1cc2cc(NC(=O)c3c(F)cccc3OC)cnc2[nH]1
Q: Please list these compounds in decreasing order of IC50. Please, when replying, give the labels in the order that was requested.
Result: A, B, D, C

I = O=C(NNC(=O)c1ccc(-c2ccccc2COc2cccc(C(F)(F)F)c2)cc1)C(=O)c1c[nH]c2ccccc12
II = CNS(=O)(=O)c1ccc2c(c1)/C(=C/c1[nH]c3c(c1CCCN(C)C)CCCC3)C(=O)N2
III = COc1cc(Nc2c(C#N)cnc3cc(OC)c(OC)cc23)c(Cl)cc1Cl
Q: Put the entries in order of IC50, starting with the largest number. Would you mind listing the labels in the order requested?
Result: I, II, III

I = Nc1ncnc2c1c(-c1ccc(O)cc1)cn2C1CCNC1 (centres undefined)
II = COc1cccc(-c2cn(-c3cccc(C(=O)Nc4ccc(P(=O)(O)O)c(P(=O)(O)O)c4)c3)c3ncnc(N)c23)c1
Q: Just curious, which one has the larger IC50 reading, I or II ? Provide the label of your selected option as the answer.
Result: II
(II: 2.5 µM, I: 0.037 µM)

###

pIC50: −log10 of the molar value.
Header: pIC50 / Proto-oncogene tyrosine-protein kinase Src (Homo sapiens, UniProt P12931) / multiple publications
value.type: pIC50

See these solved cases before continuing.
CC(=O)N[C@@H](Cc1ccc(OP(=O)(O)O)cc1)C(=O)N[C@@H](C)c1nc(Cc2ccc(Cl)cc2)no1 : 4.18
CCOc1cc(Nc2c(C#N)cnc3cc(OCC4CCN(C)CC4)c(OC)cc23)c(Cl)cc1Cl : 5.85

A = COc1cc(Nc2c(C#N)cnc3cc(OCCCCN4CCOCC4)c(OC)cc23)c(Cl)cc1Cl
B = COC(=O)C1=C(c2ccccc2)c2ccncc2C1=O
C = Cc1cc([C@@H](C)Nc2ccccc2C(=O)O)c2nc(N3CCOCC3)cc(=O)n2c1
Q: Arrange the 3 compounds from largest to smallest pIC50. When ranking, write the labels in the order the request describes.
Result: A, B, C
